system: Felis catus; test: Evaluated for its relative defibrillating activity in male cats 10 min after injection at concentration 0.5 mg/Kg; type: functional
Below, each entry is listed with its recorded Relative activity.

{"columns": ["Compound", "Relative activity [%]"],
 "data": [
  ["CC(C)NC[C@H](O)CN1c2ccccc2CCc2ccccc21.Cl", 75],
  ["CC(C)NCC(O)CN1c2ccccc2CCc2ccccc21.Cl (centres undefined)", 50],
  ["CC(C)NC[C@@H](O)CN1c2ccccc2CCc2ccccc21.Cl", 50],
  ["CC(C)NCCC(=O)N1c2ccccc2CCc2ccccc21.Cl", 25]
]}

Data provenance: ChEMBL document CHEMBL1133839
